# STUDY_SYSTEM: protein-protein interaction between Kras and SOS1 (biotin-tagged human Kras loaded with GDP, His-tagged human SOS1) (Homo sapiens (Human), UniProt P01116, G12D)
# ASSAY_PROCEDURE: Protein-protein interaction inhibition between Kras and SOS1 (KrasG12D-SOS PPI) using AlphaScreen;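 further: kras produced in E. coli, Ni-coupled donor beads and streptavidin acceptor beads, excitation 680 nm with emission detected at 520–620 nm via singlet oxygen transfer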
# Type: biochemical
# DETAILS: AlphaScreen; biotin-tagged human Kras loaded with GDP, His-tagged human SOS1; read-out: KRAS G12D-SOS PPI IC50
Bridge positions count the residues as written; N and C are the ends. Square brackets hold non-standard residues; d marks the D form. Peptide text beside a SMILES is read from it. * marks the point of attachment. hPhe(3-Cl-4-CF3) = N[C@@H](CCc1ccc(C(F)(F)F)c(Cl)c1)C(=O)O; hPhe(4-CF3) = N[C@@H](CCc1ccc(C(F)(F)F)cc1)C(=O)O; NMePhe(4-Cl) = CN[C@@H](Cc1ccc(Cl)cc1)C(=O)O; NMePhe(4-Me) = CN[C@@H](Cc1ccc(C)cc1)C(=O)O; NMeGly(cPent) = CN[C@H](C(=O)O)C1CCCC1; NMeCha = CN[C@@H](CC1CCCCC1)C(=O)O; NEtLeu = CCN[C@@H](CC(C)C)C(=O)O; NMeI = CC[C@H](C)[C@H](NC)C(=O)O; NMeD = CN[C@@H](CC(=O)O)C(=O)O; NMeL = CN[C@@H](CC(C)C)C(=O)O; hLeu = CC(C)CC[C@H](N)C(=O)O; NMeV = CN[C@H](C(=O)O)C(C)C; d(β3hA) = C[C@@H](N)CC(=O)O; Morpholide = C1CN(*)CCO1; NMeA = CN[C@@H](C)C(=O)O; Piperidide = C1CCN(*)CC1; Ac5c = NC1(C(=O)O)CCCC1; Aze = O=C(O)[C@@H]1CCN1; Sar = CNCC(=O)O
Response field label: string, one of 1.0 (IC50 strictly below 3 nM) or 0.0.

# COMPOUND, QUALITATIVE_LABEL
data = [
    ("CC[C@H](C)[C@@H]1NC(=O)[C@H](CC(C)C)N(C)C(=O)C[C@@H](C)NC(=O)[C@H](CC(C)C)N(C)C(=O)C2(CCCC2)NC(=O)[C@H](CC(C)C)N(C)C(=O)[C@H](CCc2ccc(C(F)(F)F)cc2)NC(=O)CN(C)C(=O)[C@H](Cc2ccc(Cl)cc2)N(C)C(=O)CN(C)C(=O)CN(C)C1=O [Compound 843] (cyclo([Ac5c][NMeL][d(β3hA)][NMeL]I[Sar][Sar][NMePhe(4-Cl)][Sar][hPhe(4-CF3)][NMeL]))", 0.0),
    ("CC(C)CC[C@@H]1NC(=O)[C@H](CC(C)C)N(C)C(=O)C[C@@H](C(=O)N2CCCCC2)N(C)C(=O)[C@H](C(C)C)N(C)C(=O)C2(CCCC2)NC(=O)[C@@H]2CCCN2C(=O)[C@H](CCc2ccc(C(F)(F)F)c(Cl)c2)NC(=O)CN(C)C(=O)[C@H](CC2CCCCC2)N(C)C(=O)[C@@H]2CCN2C(=O)[C@H](C)N(C)C1=O [Compound 1697] ([NMeL][hLeu][NMeA][Aze][NMeCha][Sar][hPhe(3-Cl-4-CF3)]P[Ac5c][NMeV][NMeD]-Piperidide; lactam N-11)", 0.0),
    ("CC[C@H](C)[C@@H]1NC(=O)[C@H](CC(C)C)N(CC)C(=O)C[C@@H](C(=O)N(C)C)N(C)C(=O)[C@H]([C@@H](C)CC)N(C)C(=O)C2(CCCC2)NC(=O)[C@@H]2CCCN2C(=O)[C@H](CCc2ccc(C(F)(F)F)c(Cl)c2)NC(=O)CN(C)C(=O)[C@H](Cc2ccc(C)cc2)N(C)C(=O)[C@@H]2CCN2C(=O)[C@H](C)N(C)C1=O [Compound 1365] ([NEtLeu]I[NMeA][Aze][NMePhe(4-Me)][Sar][hPhe(3-Cl-4-CF3)]P[Ac5c][NMeI][NMeD]-NMe2; lactam N-11)", 1.0),
]

Next item in the queue.
Task: Say whether its IC50 is strictly beneath 3 nM. Entry: CC[C@H](C)[C@@H]1NC(=O)[C@H](CC(C)C)N(C)C(=O)C[C@@H](C(=O)N2CCOCC2)N(C)C(=O)[C@H]([C@@H](C)CC)N(C)C(=O)C2(CCCC2)NC(=O)[C@@H]2CCCN2C(=O)[C@H](CCc2ccc(C(F)(F)F)c(Cl)c2)NC(=O)CN(C)C(=O)[C@H](C2CCCC2)N(C)C(=O)[C@@H]2CCN2C(=O)[C@H](C)N(C)C1=O [Compound 381] ([NMeL]I[NMeA][Aze][NMeGly(cPent)][Sar][hPhe(3-Cl-4-CF3)]P[Ac5c][NMeI][NMeD]-Morpholide; lactam N-11)
Result: 1.0
